Each entry below carries its reported IC50.
tested on: P388; test: Inhibitory activity was tested against P388 cells; type: functional, cell-based; details: Mus musculus

O=C1CCCCC/C1=C\c1ccccc1 > 50 µM

Which IC50 value is on record for `O=C1/C(=C/c2cccc(Cl)c2)CCCc2ccccc21` ?
8.2 µM

So what does the record say about IC50 for `O=C1/C(=C/c2ccc(Cl)cc2)Cc2ccccc21` ?
> 50 µM

Name the recorded IC50 for `O=C1/C(=C/c2ccc(Br)cc2)Cc2ccccc21` .
> 50 µM

Can you share its IC50? I mean this molecule: `O=C1/C(=C/c2ccccc2)CCc2ccccc21`
30.2 µM

Item under review: `O=C1/C(=C/c2ccc([N+](=O)[O-])cc2)CCc2ccccc21` . Reported IC50?
> 50 µM
